- Tested on: T-47D breast
- method: NCI-60 one-dose screen, 48 h
- condition_label: 10 µM unless noted
Compounds without any hit were thinned out: in the full panel of roughly 83,000, 20% have a hit. Activity calls are given as the source filed them. Rule for the calls: active = growth percent below 10; inactive = the rest.
Tick one outcome: true (1) for active, false (0) for inactive

Previously resolved entries follow.
molecule	group
CCC(c1ccc(OC)cc1)C(CC)c1ccc(OCC[N+](C)(C)C)cc1 (stereo not given)	false (0)
CCCCCCCCCCCCNC(=S)N/N=C/c1ccc(Cl)c(Cl)c1	false (0)
COc1cc2nc(SCc3cc(OC)c(OC)c(OC)c3)n(Cc3ccccc3)c(=O)c2cc1OC	false (0)
Nc1c(C(=O)Nc2cccc(C(F)(F)F)c2)sc2nc3c(cc12)CCCCC3	true (1)

Please find the next molecule below.
Query: GET /call?item= O=C(O)C(Cc1ccccc1)N1C(=O)/C(=C/C(Cl)=C/c2ccc([N+](=O)[O-])cc2)SC1=S (stereo not given) returns the recorded outcome of this test.
Response: true (1)

---

Assignment: determine reported growth for the given compounds.
- System: NCI-H322M lung
- method: NCI-60 one-dose screen, 48 h (100 = growth as untreated, 0 = no growth, -100 = all killed)
- condition_label: 10 µM unless noted
This is part of a sample that, as a whole, favours compounds with a hit. Of some 83,000 tested, about 20% had one in any assay.
One number for each entry, in %.

Solved cases below.
compound	experimental_result
COc1cccc(/C=C/C(=O)c2sc(Nc3ccc(O)cc3)nc2C)c1	93.5
COc1cc(NCCCN=C(N)NC(N)=NC(C)C)c2ncccc2c1	52
COc1ccc(C(=O)/C=C/c2cc(C(=O)c3cc(OC)c(OC)c(OC)c3)ccc2OC)cc1	91.5
COc1ccc(NC(=O)CSc2nc3ccccc3c(=O)n2Cc2cc(OC)c(OC)c(OC)c2)cc1	94.5

The record that follows has no growth shown yet.
Query: Reported growth for CCCCOc1nc2c(C)cccc2cc1C1CNC(=O)c2ccccc2N1 (stereo not given) : what is it?
Response: 105

---

- System: OVCAR-3 ovarian
- method: NCI-60 one-dose screen, 48 h (100 = growth as untreated, 0 = no growth, -100 = all killed)
- condition_label: 10 µM unless noted
Compounds without any hit were thinned out: in the full panel of roughly 83,000, 20% have a hit. The source made the active and inactive calls. How the source made its calls: active means growth percent below 10; inactive means the rest.
experimental_readout: growth

These solved cases illustrate the format of a correct answer.
molecule	experimental_result
COc1ccc(C2CC(c3cccs3)=NN2c2ccc(S(=O)(=O)NC(=O)Nc3ccc(C)cc3)cc2)cc1 (stereo not given)	98.2% (inactive)
CC1(C)OC2COC3(C(=O)O)OC(C)(C)OC3C2O1 (stereo not given)	108% (inactive)
COc1ccc(NC(=O)c2cc3ccccc3nc2Nc2cc(OC)c(OC)c(OC)c2)cc1	48% (inactive)
COC(=O)c1ccc(C)cc1	106% (inactive)
O=c1[nH]c(CN2CCN(c3ccccc3F)CC2)nc2sc3c(c12)CCC3	118% (inactive)

Hi, could you look up growth for each item in my list?
1. CC/C=C\C[C@H](O)C/C=C1/C(=O)C(Cl)=C[C@@H]1C/C=C\CCCC(=O)OC
2. COc1cc(NC(=O)c2cc3ccccc3nc2Nc2ccc(F)cc2)cc(OC)c1OC
3. Nc1c(C(=O)Nc2cccc([N+](=O)[O-])c2)sc2nc3c(cc12)C(O)CCC3 (stereo not given)
4. COC(=O)c1cc(-c2cccs2)c(C#N)c(N)c1C#N

Response:
1. -87.8% (active)
2. 36.2% (inactive)
3. 33.1% (inactive)
4. 108% (inactive)

Query: Recorded growth for c1ccc([P+](CCC[P+](c2ccccc2)(c2ccccc2)c2ccccc2)(c2ccccc2)c2ccccc2)cc1 , please?
Response: 54.1% (inactive)
